Target: CETP (Homo sapiens, UniProt P11597)
Construct: from tissue; host or cells: human plasma from normal volunteers
Sequence (P11597 18-493): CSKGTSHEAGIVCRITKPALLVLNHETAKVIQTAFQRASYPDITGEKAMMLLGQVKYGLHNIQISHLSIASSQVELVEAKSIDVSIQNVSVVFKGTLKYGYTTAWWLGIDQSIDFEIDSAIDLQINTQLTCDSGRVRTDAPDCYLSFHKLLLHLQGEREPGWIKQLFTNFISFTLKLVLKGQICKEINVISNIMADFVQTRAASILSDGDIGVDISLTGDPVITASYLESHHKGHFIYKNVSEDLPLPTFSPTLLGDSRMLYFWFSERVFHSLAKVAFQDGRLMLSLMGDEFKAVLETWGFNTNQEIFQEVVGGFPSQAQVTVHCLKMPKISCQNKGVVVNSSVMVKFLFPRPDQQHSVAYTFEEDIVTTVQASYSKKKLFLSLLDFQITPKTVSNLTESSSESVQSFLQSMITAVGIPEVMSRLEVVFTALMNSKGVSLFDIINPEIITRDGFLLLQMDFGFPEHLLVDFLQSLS
Assay: CETP in vitro assay (Amersham kit TRKQ7005; modified protocol in human plasma, [3H]CE-HDL transfer)
Format: biochemical
Conditions: 1 μM compound; 1 µM
Value type: % Inhibition @ 1 μM (%)
Numeric only. Scale: %

Below are worked cases with known answers.
INSERT INTO results (molecule, value_type, measurement) VALUES
  ('OC(CN1c2cccc(-c3cccc(OC(F)(F)F)c3)c2CCC1c1ccccc1OC(F)(F)C(F)F)C(F)(F)F (stereo not shown) [Compound 90]', '% Inhibition @ 1 μM', 0),
  ('CC(C)C(O)CN1c2cccc(-c3cccc(OC(F)(F)F)c3)c2CCC1c1cccc(OC(F)(F)F)c1 (stereo not shown)', '% Inhibition @ 1 μM', 22),
  ('OC(CN1c2cccc(-c3cccc(OC(F)(F)F)c3)c2CCC1c1cccs1)C(F)(F)F (stereo not shown) [Compound 33]', '% Inhibition @ 1 μM', 28),
  ('OC(CN1c2cccc(-c3cccc(OC(F)(F)F)c3)c2CCC1c1cccc(OC(F)(F)C(F)F)c1)C(F)(F)F (single isomer, unassigned)', '% Inhibition @ 1 μM', 86),
  ('OC(CN1c2cccc(-c3cccc(OC(F)(F)F)c3)c2CCC1c1cccc(Cl)c1)C(F)(F)F (stereo not shown) [Compound 30]', '% Inhibition @ 1 μM', 13);

Provide only the value of recorded % Inhibition @ 1 μM for OC(CN1c2cccc(-c3cccc(F)c3)c2CCC1c1cccc(OC(F)(F)F)c1)C(F)(F)F (stereo not shown)
40

Supply % Inhibition @ 1 μM value. Item: O[C@H](CN1c2cccc(-c3cccc(OC(F)(F)F)c3)c2CC[C@H]1c1cccc(OC(F)(F)C(F)F)c1)C(F)(F)F
36

Output % Inhibition @ 1 μM of Cc1cc(-c2cccc3c2CCC(c2cccc(OC(F)(F)C(F)F)c2)N3CC(O)C(F)(F)F)ccc1Cl (stereo not shown) [Compound 6]
42

Indicate its recorded % Inhibition @ 1 μM; the molecule in question is CCc1cc(Oc2cccc3c2CCC(c2cccc(OC(F)(F)C(F)F)c2)N3CC(O)C(F)(F)F)ccc1Cl (stereo not shown) [Compound 85]
86

Answer with the recorded % Inhibition @ 1 μM for the molecule listed here: O[C@@H](CN1c2cccc(-c3cccc(OC(F)(F)F)c3)c2CC[C@@H]1c1cccc(OC(F)(F)C(F)F)c1)C(F)(F)F
79
